# TESTED TARGET: Serotonin reuptake (whole rat brain synaptosomes) (Rattus norvegicus, UniProt P31652)
# Construct: from tissue; host or cells: whole rat brain synaptosomes
# Sequence (P31652 whole entry): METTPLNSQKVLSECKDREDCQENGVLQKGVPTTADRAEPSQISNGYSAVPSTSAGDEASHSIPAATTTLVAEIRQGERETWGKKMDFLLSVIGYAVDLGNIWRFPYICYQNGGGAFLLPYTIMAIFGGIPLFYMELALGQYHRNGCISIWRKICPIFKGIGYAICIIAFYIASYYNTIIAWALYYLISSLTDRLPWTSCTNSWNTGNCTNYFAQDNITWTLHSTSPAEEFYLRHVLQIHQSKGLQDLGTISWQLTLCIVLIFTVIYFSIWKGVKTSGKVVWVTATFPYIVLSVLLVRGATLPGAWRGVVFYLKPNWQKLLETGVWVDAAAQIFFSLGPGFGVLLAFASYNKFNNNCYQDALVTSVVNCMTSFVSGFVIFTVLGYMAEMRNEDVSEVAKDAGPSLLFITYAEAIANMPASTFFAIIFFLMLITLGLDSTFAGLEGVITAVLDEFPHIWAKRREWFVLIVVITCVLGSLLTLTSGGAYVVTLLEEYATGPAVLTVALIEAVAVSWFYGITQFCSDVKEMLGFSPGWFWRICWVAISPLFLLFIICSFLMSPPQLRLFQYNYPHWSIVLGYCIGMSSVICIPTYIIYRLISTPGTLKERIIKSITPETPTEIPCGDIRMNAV
# TEST SUMMARY: Inhibition of 3H-5-HT uptake into rat brain synaptosomes
# Assay type: biochemical
What log10(IC50) was measured for each of the following?
Values reflect log10 of reported IC50 (nM).

Below, each entry is followed by its recorded log10(IC50) result.
smiles_entry=COC(=O)c1cc(N2CCN(CCc3c[nH]c4cc(Cl)ccc34)CC2)c2cc[nH]c2c1 value_measured=1.36
smiles_entry=OCc1cc(N2CCN(CCc3c[nH]c4ccc(Br)cc34)CC2)c2cc[nH]c2c1 value_measured=1.66
smiles_entry=Clc1ccc2c(CCN3CC=C(c4cccc5[nH]ccc45)CC3)c[nH]c2c1 value_measured=1.34
smiles_entry=Clc1cccc2[nH]cc(CCN3CCN(c4cccc5[nH]ccc45)CC3)c12 value_measured=0.84
smiles_entry=Fc1ccc2occ(CCCN3CC=C(c4cccc5[nH]ccc45)CC3)c2c1 value_measured=1.38

Field: log10(IC50). Fill in for each record below.
1. c1ccc2c(CCN3CCN(c4cccc5[nH]ccc45)CC3)c[nH]c2c1
2. N#Cc1c[nH]c2cccc(N3CCN(CCc4c[nH]c5cc(Cl)ccc45)CC3)c12
3. OCc1cc(N2CCN(CCc3c[nH]c4cc(Cl)ccc34)CC2)c2cc[nH]c2c1

## Result
1: 0.64; 2: 1.28; 3: 1.52

###

What pIC50 was measured for each of the following?
# TESTED TARGET: cloned human 5-HT1A receptors (Homo sapiens)
# Construct: expressed in transfected cells; host or cells: HeLa cells (HA7)
# Sequence (P08908 1-422): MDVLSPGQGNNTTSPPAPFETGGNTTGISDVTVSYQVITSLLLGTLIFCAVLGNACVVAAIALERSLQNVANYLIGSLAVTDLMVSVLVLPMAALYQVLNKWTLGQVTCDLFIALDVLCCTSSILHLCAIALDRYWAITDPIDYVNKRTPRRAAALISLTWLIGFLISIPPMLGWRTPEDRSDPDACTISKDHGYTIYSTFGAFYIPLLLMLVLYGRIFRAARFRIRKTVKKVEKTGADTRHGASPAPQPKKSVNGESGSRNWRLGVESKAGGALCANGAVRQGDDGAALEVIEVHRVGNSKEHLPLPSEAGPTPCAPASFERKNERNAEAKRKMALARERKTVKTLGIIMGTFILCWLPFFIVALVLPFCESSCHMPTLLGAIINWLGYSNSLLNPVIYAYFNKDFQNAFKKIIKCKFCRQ
# TEST SUMMARY: Inhibition of 3H-5-CT binding to human 5-HT1A receptors
# MEASUREMENT SETUP: cloned human 5-HT1A receptors in transfected HeLa cells (HA7), 15 minutes at 37° C., pH 7.7
Numbers only, as −log10 of the molar value.

Below, each entry is followed by its recorded pIC50 result.
compound="Fc1ccc2c(CCCN3CCN(c4cccc5[nH]ccc45)CC3)noc2c1 [Compound 4a]" reported_metric=pIC50 value_measured=8.01
compound="COC(=O)c1cc(N2CCN(CCc3c[nH]c4ccccc34)CC2)c2cc[nH]c2c1 [Compound 4f]" reported_metric=pIC50 value_measured=5.92
compound="N#Cc1c[nH]c2cccc(N3CCN(CCc4coc5ccc(F)cc45)CC3)c12 [Compound 4n]" reported_metric=pIC50 value_measured=8.24
compound="COC(=O)c1cc(N2CCN(CCc3c[nH]c4cc(Cl)ccc34)CC2)c2cc[nH]c2c1 [Compound 4g]" reported_metric=pIC50 value_measured=6.46
compound="N#Cc1cccc2c(CCN3CCN(c4cccc5[nH]ccc45)CC3)c[nH]c12 [Compound 1l]" reported_metric=pIC50 value_measured=8.60

Field: pIC50. Fill in for each record below.
1. N#Cc1c[nH]c2cccc(N3CCN(CCc4c[nH]c5cccc(Cl)c45)CC3)c12 [Compound 4x]
2. Clc1ccc2c(CCN3CCC(c4cccc5[nH]ccc45)CC3)c[nH]c2c1 [Compound 5a]
3. c1ccc2c(CCCCN3CCN(c4cccc5[nH]ccc45)CC3)c[nH]c2c1 [Compound 1g]
4. c1cc(N2CCN(Cc3coc4ccccc34)CC2)c2cc[nH]c2c1 [Compound 1b]

## Result
1: 8.27; 2: 7.85; 3: 7.89; 4: 6.68
